- System name: Dimer of Gag-Pol polyprotein [489-587,Q496K,L499I,M535I,I543V,Q547E,L552P,I553V,V566I,V571F,I573V,L579M,I582L] (Human immunodeficiency virus 1, UniProt P12497, I543V/I553V/I573V/I582L/L499I/L552P/L579M/M535I/Q496K/Q547E/V566I/V571F)
- Construct: 489-587
- Method description: Protease Inhibition Assay
Exercise: for every item that follows, state its recorded IC50.
Answers are plain numbers, in nM.

> print(dat)
                           molecular.string  metric.name  numeric.value
1  O=C(N[C@H]1c2ccccc2OC[C@H]1O)[C@H](Cc1ccncc1)C[C@H](O)CN1CCN(Cc2cc3ccsc3s2)C[C@H]1C(=O)NCC(F)(F)F         IC50             20

Consider the record given below.
For "O=C(N[C@H]1c2ccccc2OC[C@H]1O)[C@H](Cc1cccnc1)C[C@H](O)CN1CCN(Cc2cc3ccsc3s2)C[C@H]1C(=O)NCC(F)(F)F" , what is its reported IC50?
5
